Provenance of the data: ChEMBL document CHEMBL1133731

target: Neuronal acetylcholine receptor; alpha4/beta2 (Rattus norvegicus, UniProt P09483+P12390); test: In vitro binding affinity for Nicotinic acetylcholine receptor alpha4-beta2 in rat cerebral cortical membrane using [3H]cytisine as radioligand; type: cell membranes
Sequence (P09483 whole entry): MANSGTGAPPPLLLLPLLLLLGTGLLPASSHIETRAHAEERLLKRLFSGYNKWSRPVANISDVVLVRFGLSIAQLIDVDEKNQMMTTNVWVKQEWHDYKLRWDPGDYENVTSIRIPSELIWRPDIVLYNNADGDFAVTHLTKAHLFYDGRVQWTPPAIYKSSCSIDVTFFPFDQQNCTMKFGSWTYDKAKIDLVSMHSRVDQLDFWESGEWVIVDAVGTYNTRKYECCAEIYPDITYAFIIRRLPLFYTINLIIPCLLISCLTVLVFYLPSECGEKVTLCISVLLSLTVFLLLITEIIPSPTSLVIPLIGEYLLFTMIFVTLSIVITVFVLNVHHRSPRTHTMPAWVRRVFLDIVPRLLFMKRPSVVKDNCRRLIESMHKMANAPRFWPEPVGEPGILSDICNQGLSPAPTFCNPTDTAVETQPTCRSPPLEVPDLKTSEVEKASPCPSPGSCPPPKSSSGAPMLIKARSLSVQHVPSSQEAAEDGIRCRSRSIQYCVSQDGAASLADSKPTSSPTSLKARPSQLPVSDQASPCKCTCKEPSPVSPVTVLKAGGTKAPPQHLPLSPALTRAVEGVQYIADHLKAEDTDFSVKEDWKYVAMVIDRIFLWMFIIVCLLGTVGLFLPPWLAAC
Sequence (P12390 whole entry): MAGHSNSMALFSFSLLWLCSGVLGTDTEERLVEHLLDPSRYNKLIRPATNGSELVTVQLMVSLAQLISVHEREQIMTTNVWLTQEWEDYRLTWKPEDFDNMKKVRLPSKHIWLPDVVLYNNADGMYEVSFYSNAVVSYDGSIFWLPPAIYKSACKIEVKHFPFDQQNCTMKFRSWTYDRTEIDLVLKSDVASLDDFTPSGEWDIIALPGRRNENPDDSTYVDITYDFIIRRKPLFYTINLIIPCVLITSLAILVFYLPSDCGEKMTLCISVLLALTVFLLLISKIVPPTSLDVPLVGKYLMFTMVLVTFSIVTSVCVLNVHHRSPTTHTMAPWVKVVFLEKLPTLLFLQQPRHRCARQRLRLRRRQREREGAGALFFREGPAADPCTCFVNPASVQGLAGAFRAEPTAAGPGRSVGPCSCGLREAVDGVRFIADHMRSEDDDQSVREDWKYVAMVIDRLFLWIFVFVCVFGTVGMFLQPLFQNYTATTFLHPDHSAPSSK
Measured parameter: pIC50
// pIC50 is dimensionless: -log10 of concentration (M)

Requested read-out: pIC50. Entry: c1cncc(OC[C@@H]2CCN2)c1
8.82

====

target: Neuronal acetylcholine receptor; alpha4/beta2 (Rattus norvegicus, UniProt P09483+P12390); experiment: In vitro binding affinity for Nicotinic acetylcholine receptor alpha4-beta2 in rat cerebral cortical membrane using [3H]cytisine as radioligand; assay type: cell membranes; settings: read-out: IC50
Measured parameter: IC50 (µM)
The reply should contain only the number, in µM.

Requested read-out: IC50. Entry: c1cncc(OC2CCCNC2)c1 (centres undefined)
0.19

Requested read-out: IC50. Entry: COc1cc(N2CCCNCC2)cnc1OC
0.17

Requested read-out: IC50. Entry: Clc1cncc(OC2CCNC2)c1 (centres undefined)
0.22

Requested read-out: IC50. Entry: Oc1cncc(N2CCCNCC2)c1
0.0024
